Data origin: patent US9216999B2

Listed below: IC50 values for each entry.
- SUBJECT OF TEST: Tyk2 (Homo sapiens (Human))
- Sequence (P29597 whole entry): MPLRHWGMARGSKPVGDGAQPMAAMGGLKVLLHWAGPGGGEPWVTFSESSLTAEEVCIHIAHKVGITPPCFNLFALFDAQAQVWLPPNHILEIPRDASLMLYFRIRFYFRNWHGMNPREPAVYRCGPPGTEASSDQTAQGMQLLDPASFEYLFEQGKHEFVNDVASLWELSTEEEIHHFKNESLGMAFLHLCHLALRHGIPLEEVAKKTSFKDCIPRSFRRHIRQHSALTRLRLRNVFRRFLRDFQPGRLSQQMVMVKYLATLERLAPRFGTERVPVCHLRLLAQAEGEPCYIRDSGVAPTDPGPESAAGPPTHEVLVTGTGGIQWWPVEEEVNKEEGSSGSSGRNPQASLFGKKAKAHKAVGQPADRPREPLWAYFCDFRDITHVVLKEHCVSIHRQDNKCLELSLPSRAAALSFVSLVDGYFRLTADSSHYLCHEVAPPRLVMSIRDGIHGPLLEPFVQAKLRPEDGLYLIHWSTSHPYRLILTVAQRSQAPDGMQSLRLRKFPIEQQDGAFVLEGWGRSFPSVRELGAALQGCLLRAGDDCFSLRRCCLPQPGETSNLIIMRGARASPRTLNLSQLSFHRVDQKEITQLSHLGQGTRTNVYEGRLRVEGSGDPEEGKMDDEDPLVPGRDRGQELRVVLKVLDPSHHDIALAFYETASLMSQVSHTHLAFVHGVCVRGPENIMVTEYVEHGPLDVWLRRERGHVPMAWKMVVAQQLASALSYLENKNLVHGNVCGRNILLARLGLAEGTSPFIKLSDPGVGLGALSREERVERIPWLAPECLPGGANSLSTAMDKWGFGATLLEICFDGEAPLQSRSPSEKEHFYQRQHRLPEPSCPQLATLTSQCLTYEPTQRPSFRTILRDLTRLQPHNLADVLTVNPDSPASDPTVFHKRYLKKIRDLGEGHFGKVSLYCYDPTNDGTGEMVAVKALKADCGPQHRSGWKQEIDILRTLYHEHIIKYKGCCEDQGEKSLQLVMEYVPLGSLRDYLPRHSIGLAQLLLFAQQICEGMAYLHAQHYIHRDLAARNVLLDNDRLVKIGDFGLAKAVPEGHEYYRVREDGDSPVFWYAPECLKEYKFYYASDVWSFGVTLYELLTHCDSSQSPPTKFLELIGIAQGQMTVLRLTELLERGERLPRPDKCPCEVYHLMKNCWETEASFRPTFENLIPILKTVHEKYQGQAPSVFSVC
- MEASUREMENT DESCRIPTION: Enzyme assay (Assay Example^a 1), Tyk2
- Type: biochemical
- MEASUREMENT CONDITIONS: ATP 100 μM; Table^a 154

- MOLECULE: "COC[C@H]1CC[C@H](c2nnn3cnc4[nH]ccc4c23)CC1"
  IC50, µM: 0.14
- MOLECULE: "c1ccc(CCNC[C@H]2CC[C@H](c3nnn4cnc5[nH]ccc5c34)CC2)cc1"
  IC50, µM: 0.099
- MOLECULE: "Clc1ccc(CN[C@H]2CC[C@@H](c3nnn4cnc5[nH]ccc5c34)CC2)cc1 [197a]"
  IC50, µM: 0.15
- MOLECULE: "Cc1ccc(CNC[C@H]2CC[C@H](c3nnn4cnc5[nH]ccc5c34)CC2)s1"
  IC50, µM: 0.0036

###

Listed below: IC50 values for each entry.
- SUBJECT OF TEST: JAK3 (Homo sapiens (Human), UniProt P52333)
- Sequence (P52333 whole entry): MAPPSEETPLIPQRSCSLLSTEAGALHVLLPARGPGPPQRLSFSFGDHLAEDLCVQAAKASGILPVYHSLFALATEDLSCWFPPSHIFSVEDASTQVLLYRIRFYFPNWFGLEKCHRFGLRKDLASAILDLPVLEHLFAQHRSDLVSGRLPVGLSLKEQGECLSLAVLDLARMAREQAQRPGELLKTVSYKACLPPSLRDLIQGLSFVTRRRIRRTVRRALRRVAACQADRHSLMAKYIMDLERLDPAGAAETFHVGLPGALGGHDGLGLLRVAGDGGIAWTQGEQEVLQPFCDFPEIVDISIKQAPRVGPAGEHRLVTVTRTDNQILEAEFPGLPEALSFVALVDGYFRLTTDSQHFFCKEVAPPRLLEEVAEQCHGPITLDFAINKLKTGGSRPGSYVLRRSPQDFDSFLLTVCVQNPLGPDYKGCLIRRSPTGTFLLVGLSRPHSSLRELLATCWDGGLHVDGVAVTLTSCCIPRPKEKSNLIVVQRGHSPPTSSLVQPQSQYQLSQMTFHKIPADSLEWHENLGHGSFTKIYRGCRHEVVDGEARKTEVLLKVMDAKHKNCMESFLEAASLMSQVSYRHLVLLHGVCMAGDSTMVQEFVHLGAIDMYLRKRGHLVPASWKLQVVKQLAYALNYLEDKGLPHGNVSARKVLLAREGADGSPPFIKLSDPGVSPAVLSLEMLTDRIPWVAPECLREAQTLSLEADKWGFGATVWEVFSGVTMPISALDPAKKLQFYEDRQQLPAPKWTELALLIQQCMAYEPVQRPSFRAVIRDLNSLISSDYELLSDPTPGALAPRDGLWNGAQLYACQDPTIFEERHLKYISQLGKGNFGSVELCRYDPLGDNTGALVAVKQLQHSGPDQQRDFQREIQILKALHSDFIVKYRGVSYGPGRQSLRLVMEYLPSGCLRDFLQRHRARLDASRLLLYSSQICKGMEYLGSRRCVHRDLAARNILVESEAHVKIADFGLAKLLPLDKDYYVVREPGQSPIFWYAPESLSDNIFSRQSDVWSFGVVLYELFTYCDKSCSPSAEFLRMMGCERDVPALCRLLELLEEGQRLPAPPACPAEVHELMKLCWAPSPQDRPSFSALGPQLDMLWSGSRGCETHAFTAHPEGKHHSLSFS
- MEASUREMENT DESCRIPTION: Enzyme assay (Assay Example^a 1), JAK3
- Type: biochemical
- MEASUREMENT CONDITIONS: ATP 100 μM

- COMPOUND: "FC1CN(C[C@H]2CC[C@H](c3nnn4cnc5[nH]ccc5c34)CC2)C1"
  SUBJECT OF TEST: "JAK3 (Homo sapiens (Human), UniProt P52333)"
  UNITS SYMBOL: "µM"
  READING QUALIFIER: "="
  IC50: 0.48
- COMPOUND: "FC(F)(F)CN(CC1CC1)C[C@H]1CC[C@H](c2nnn3cnc4[nH]ccc4c23)CC1"
  SUBJECT OF TEST: "JAK3 (Homo sapiens (Human), UniProt P52333)"
  UNITS SYMBOL: "µM"
  READING QUALIFIER: ">"
  IC50: 1
- COMPOUND: "O=C1COc2ccc(NC[C@H]3CC[C@H](c4nnn5cnc6[nH]ccc6c45)CC3)cc2N1"
  SUBJECT OF TEST: "JAK3 (Homo sapiens (Human), UniProt P52333)"
  UNITS SYMBOL: "µM"
  READING QUALIFIER: ">"
  IC50: 1
- COMPOUND: "c1cc2c(ncn3nnc([C@H]4CC[C@H](CNCC5CC5)CC4)c23)[nH]1"
  SUBJECT OF TEST: "JAK3 (Homo sapiens (Human), UniProt P52333)"
  UNITS SYMBOL: "µM"
  READING QUALIFIER: "="
  IC50: 0.61
- COMPOUND: "CC(C)(O)c1cn(C[C@H]2CC[C@H](c3nnn4cnc5[nH]ccc5c34)CC2)nn1"
  SUBJECT OF TEST: "JAK3 (Homo sapiens (Human), UniProt P52333)"
  UNITS SYMBOL: "µM"
  READING QUALIFIER: "="
  IC50: 0.59
- COMPOUND: "C(=C\\c1ccco1)/CN1CCC(c2nnn3cnc4[nH]ccc4c23)CC1"
  SUBJECT OF TEST: "JAK3 (Homo sapiens (Human), UniProt P52333)"
  UNITS SYMBOL: "µM"
  READING QUALIFIER: ">"
  IC50: 1
- COMPOUND: "FC(F)(F)CN[C@H]1CC[C@H](c2nnn3cnc4[nH]ccc4c23)CC1 [395b]"
  SUBJECT OF TEST: "JAK3 (Homo sapiens (Human), UniProt P52333)"
  UNITS SYMBOL: "µM"
  READING QUALIFIER: "="
  IC50: 0.61
- COMPOUND: "FC(F)CN[C@H]1CC[C@H](c2nnn3cnc4[nH]ccc4c23)CC1 [399b]"
  SUBJECT OF TEST: "JAK3 (Homo sapiens (Human), UniProt P52333)"
  UNITS SYMBOL: "µM"
  READING QUALIFIER: ">"
  IC50: 1
